system: NCI-H322M lung; assay: NCI-60 one-dose screen, 48 h (100 = growth as untreated, 0 = no growth, -100 = all killed); details: 10 µM unless noted
About 83,000 compounds went through this panel and 20% of them were active in at least one assay; those are over-represented in the sample as a whole.
quantity: growth (%)

1) O=C1C=CC(=O)N1c1ccccc1    110
2) Oc1ccc2ccccc2c1N=Nc1nccs1    15.7
3) N#CC(I)CS(=O)(=O)c1ccccc1 (stereo unspecified)    124
4) O=C1C=CC(=O)N1c1cc(Cl)c(Cl)cc1Cl    90.6
5) CC1=CC(=O)C=CC1(C)C(Cl)(Cl)Cl (stereo unspecified)    102
6) Cc1cc(Br)c2nsnc2c1[N+](=O)[O-]    88.2
7) O=[N+]([O-])/C(=C/c1ccccc1)c1ccccc1    106
8) CC1(C)N=c2cc3c(cc2N1c1ccc(Cl)cc1)=Nc1ccccc1N3c1ccc(Cl)cc1    75.2
9) CC(C)=CCCC(C)C1=C(O)C(=O)C(C)=CC1=O (stereo unspecified)    112
10) CCN(CC)CC(O)c1cc(-c2ccc(Cl)cc2)nc2cc(Cl)ccc12 (stereo unspecified)    79.2
11) CCCCCCCCCCCCN1C(C)=CS/C1=C\C=C\c1scc(C)[n+]1CCCCCCCCCCCC    96.8
12) CC(C)(C)CC(C)(C)c1ccc(OCCOCCSC(=N)N)cc1    67.9
13) O=C(NOC(=O)c1ccccc1)c1ccccc1    119
14) Cc1ccc2cccc(OC(=O)Nc3cccc(C(F)(F)F)c3)c2n1    88.7
15) CC1(C)CCCC2=C1C(=O)N(SC(Cl)(Cl)Cl)C2=O    101
16) Oc1ccc(Cl)cc1C(c1cc(Cl)ccc1O)C(Cl)(Cl)Cl    27.7
17) CC(=O)c1ccc2c(c1)CCc1ccccc1-2    116
18) COC(=O)[C@]1(C)CCC[C@]2(C)c3ccc(C(C)C)cc3C(=O)[C@@H](Br)[C@@H]12    118
19) O=[N+]([O-])c1ccc2c(c1)Cc1ccccc1-2    106
20) N#CC1c2ccccc2C=CN1C(=O)CCCl (stereo unspecified)    93.8
21) O=C(/C=C/C(Cl)(Cl)Cl)Nc1ccc(Cl)cc1    126
22) O=C(c1ccccc1)c1cc2ccccc2oc1=O    97.7
23) S=C(S)OCN1CCOCC1    98
24) CC(=O)c1c(O)c(C)c(O)c2c1OC1=CC(=O)C(C(C)=O)C(=O)C12C (stereo unspecified)    60.3
25) CCCCCCCCCCCCNCCCc1ccccc1    91.1
26) NC1=C(Br)C(=O)c2ncccc2C1=O    34.9
27) CCN1CCCC(Nc2cc(C)nc(/N=C(/N)Nc3ccc(Cl)c(Cl)c3)n2)C1 (stereo unspecified)    -17.1
28) C1=C(c2ccccc2)c2ccccc2C1    78.4
29) O=C(Nc1cccc(C(F)(F)F)c1)Oc1ccc(Cl)c2cccnc12    101
30) CCCCCC/C=C1\CCC(CN2CCCC2)C1=O (stereo unspecified)    106
31) CCC(C)C(N)C(=O)NC(CC(N)=O)C(=O)NC(CC(C)C)C(=O)NC(CCCCN)C(=O)NC(C)C(=O)NC(CC(C)C)C(=O)NC(C)C(=O)NC(C)C(=O)NC(CC(C)C)C(=O)NC(C)C(=O)NC(CCCCN)C(=O)NC(CCCCN)C(=O)NC(C(=O)NC(CC(C)C)C(N)=O)C(C)CC (stereo unspecified)    100
32) O=C(/C(Cl)=N/O)c1ccc(-c2ccccc2)cc1    94.3
33) O=[n+]1c2ccccc2n([O-])c2cc(Cl)ccc21    98.5
34) COc1ccc2nc3cc([N+](=O)[O-])ccc3c(NNc3ccccc3)c2c1    86.9
35) CCCCC(C=O)(C=C=C(C)C)CC (stereo unspecified)    101
36) Cc1cc(C)c(C#N)c(Sc2nc(C)c([N+](=O)[O-])c(C)c2C#N)n1    83.6
37) COc1cc(/C=C2\SC(=S)N(/C=C/c3nc4ccccc4[nH]c3=O)C2=O)cc(OC)c1OC    89.1
38) CC(/C=N/NC(N)=S)Cc1ccc(C(C)C)cc1 (stereo unspecified)    104
39) Clc1ccc(-n2ncc3c(NCCCN4CCOCC4)ncnc32)cc1    89.8
40) O=C(OC12CC3CC(CC(C3)C1)C2)c1ccc(NCc2cc(O)ccc2O)cc1    47.6
41) C[C@@]1(CO)[C@H](O)CC[C@@]2(C)[C@H]1CC[C@H]1C[C@@H]3C[C@@]12CC[C@@]3(O)COC(=O)CN    78.1
42) CN1CSC(=S)N(Cc2ccccc2)C1    102
43) O=[N+]([O-])c1ccc(C(Br)c2ccc([N+](=O)[O-])cc2)cc1    114
44) O=C(c1ccccc1)C(Br)C(Br)c1ccccc1 (stereo unspecified)    121
45) O=C1C=CC(=O)N1c1cccc2c1CCCC2    91.9
46) COc1cc(/C=C/c2ccnc3ccccc23)cc(OC)c1OC    65.7

* * *

tested on: KM12 colon; experiment: NCI-60 one-dose screen, 48 h (100 = growth as untreated, 0 = no growth, -100 = all killed); conditions: 10 µM unless noted
About 83,000 compounds went through this panel and 20% of them were active in at least one assay; those are over-represented in the sample as a whole.
quantity: growth (%)

1) CCCCCCCCCCCCN1C(C)=CS/C1=C\C=C\c1scc(C)[n+]1CCCCCCCCCCCC    14.8
2) CCOc1ccc(Nc2nc3c(s2)C(=O)c2ccccc2C3=O)cc1    81.4
3) COC(=O)c1ccc(=O)c2nc3/c(=C/O)c(O)cc(=O)c3[nH]c12    31.1
4) COC(=O)c1cc([N+](=O)[O-])cc([N+](=O)[O-])c1Cl    105
5) OC(c1cc(C23CC4CC(CC(C4)C2)C3)nc2c(Cl)cc(Cl)cc12)C1CCCCN1 (configuration not stated)    -91.4
6) O=C(Nc1cccc(C(F)(F)F)c1)Oc1ccc(Cl)c2cccnc12    25.4
7) CCCCN(CCCC)CCCCCCCCCCO    103
8) CN1CSC(=S)N(Cc2ccccc2)C1    40.8
9) O=Nc1ccc2ccccc2c1O    79.3
10) OCCOSCCO    112
11) CCCCCCCCCCCC[n+]1ccccc1 (tested in a mixture with another compound)    -95.7
12) S=C1SCN(Cc2cccs2)CN1Cc1cccs1    91.2
13) O=C(/C=C/C(Cl)(Cl)Cl)Nc1ccc(Cl)cc1    132
14) O=[N+]([O-])c1ccc(C(Br)c2ccc([N+](=O)[O-])cc2)cc1    60.3
15) O=C(c1ccccc1)C(Br)[N+](=O)[O-] (configuration not stated)    100
16) CN(C)c1ccc2cc3c(cc2c1)Oc1ccccc1N3.[Cl][Zn][Cl]    79.6
17) O=C(c1ccc(O)c(Br)c1)c1ccc(O)c(Br)c1    99.2
18) O=C1CSC(=S)N1Cc1cccnc1    7.96
19) CN(C)c1ccc(/C=C/c2ccnc3ccccc23)cc1    29.9
20) CCCCOS(=O)(=O)c1ccccc1    109
21) CC1(O)CCCCCC1    106
22) NCCCN(CCCN)CCCNCc1c2ccccc2c(CNCCCN(CCCN)CCCN)c2ccccc12    97.2
23) CCCOC(=O)c1nc(N(CC2CCCCC2)C(=O)NC)sc1/N=C/c1ccccc1    7.21
24) CCCCCCCCCCCCSC(=N)N    -21.1
25) CC(C)(C)c1ccc(O)c(Br)c1    104
26) O=C1/C(=C\c2ccc([N+](=O)[O-])cc2)CS(=O)(=O)C/C1=C/c1ccc([N+](=O)[O-])cc1    -89.4
27) CCCCCCN(CCCCCC)CCCNc1nccc2ccccc12    9.96

* * *

tested on: SNB-75 CNS; assay: NCI-60 one-dose screen, 48 h (100 = growth as untreated, 0 = no growth, -100 = all killed); conditions: 10 µM unless noted
Compounds without any hit were thinned out: in the full panel of roughly 83,000, 20% have a hit.
quantity: growth (%)

1) CCOC(=O)C1(C)CCCC1N (stereo unspecified)    86.3
2) O=C1c2ccccc2Cc2cccc(Cl)c21    117
3) O=C(Cc1ccccc1)C(F)(F)F    92.4
4) CCOc1ccc(C(CN2CCOCC2)C(C)=O)cc1OC (stereo unspecified)    85.9
5) OC(Cc1cc(CC(O)(C(F)(F)F)C(F)(F)F)nc(CC(O)(C(F)(F)F)C(F)(F)F)c1)(C(F)(F)F)C(F)(F)F    -8.76
6) CC1=CC(=O)C=CC1(C)C(Cl)(Cl)Cl (stereo unspecified)    109
